Cited source: paper PMC12203311

Below are compounds with their GI50 as measured on MDA-MB-468.
Write the value in µM as a bare number.

Field: example entries. Status: answers known.
smilesRepr	testValue
O=C(N/N=C/c1cc(Br)c(Br)[nH]1)c1[nH]c2ccc(Br)cc2c1-c1ccccc1	2.09
Cc1cc(C)c(/C=N/NC(=O)c2[nH]c3ccc(Br)cc3c2-c2ccccc2)[nH]1	2

Lab note: measured GI50 of `CCOC(=O)c1c[nH]c(/C=N/NC(=O)c2[nH]c3ccc(Br)cc3c2-c2ccccc2)c1` was 2.47

Lab note: measured GI50 of `CCOC(=O)c1ccc(/C=N/NC(=O)c2[nH]c3ccc(Br)cc3c2-c2ccccc2)[nH]1` was 1.63

----------
- Tested on: NCI-H226
- measurementDescription: NCI60 five-dose screen
- Type: cell-based
- cond: Homo sapiens; NCI-H226, NSC lung cancer; read-out: LC50 (the source's name)
# note: boundary value 50 µM maps to -1; CC50 below it maps to 1

smilesRepr	assayedTarget	labelValue
CCc1c[nH]c(/C=N/NC(=O)c2[nH]c3ccc(Br)cc3c2-c2ccccc2)c1	NCI-H226	1
O=C(N/N=C/c1cc(Cl)c[nH]1)c1[nH]c2ccc(Br)cc2c1-c1ccccc1	NCI-H226	-1
O=C(N/N=C/c1[nH]ccc1Cl)c1[nH]c2ccc(Br)cc2c1-c1ccccc1	NCI-H226	1
Cc1[nH]c(/C=N/NC(=O)c2[nH]c3ccc(Br)cc3c2-c2ccccc2)c(C)c1[N+](=O)[O-]	NCI-H226	1
CCc1cc[nH]c1/C=N/NC(=O)c1[nH]c2ccc(Br)cc2c1-c1ccccc1	NCI-H226	1

Does this compound meet the criterion CC50 < 50 µM? `O=C(N/N=C/c1ccc(C(=O)N2CCOCC2)[nH]1)c1[nH]c2ccc(Br)cc2c1-c1ccccc1` -1

Does this compound meet the criterion CC50 < 50 µM? `O=C(N/N=C/c1cc([N+](=O)[O-])c[nH]1)c1[nH]c2ccc(Br)cc2c1-c1ccccc1` -1

----------
- Test system: PC-3
- measurementDescription: NCI60 five-dose screen
- Assay type: cell-based
- cond: Homo sapiens; PC-3, prostate cancer; read-out: LC50 (the source's name)
# note: boundary value 50 µM maps to no (0); CC50 below it maps to yes (1)

# count of solved cases: 5
smilesRepr	labelValue
Cc1cc(C)c(/C=N/NC(=O)c2[nH]c3ccc(Br)cc3c2-c2ccccc2)[nH]1	yes (1)
O=C(N/N=C/c1ccc(C(=O)N2CCOCC2)[nH]1)c1[nH]c2ccc(Br)cc2c1-c1ccccc1	no (0)
CCc1ccc(/C=N/NC(=O)c2[nH]c3ccc(Br)cc3c2-c2ccccc2)[nH]1	no (0)
CCOC(=O)c1c[nH]c(/C=N/NC(=O)c2[nH]c3ccc(Br)cc3c2-c2ccccc2)c1	no (0)
O=C(N/N=C/c1ccc([N+](=O)[O-])[nH]1)c1[nH]c2ccc(Br)cc2c1-c1ccccc1	no (0)

Does this compound meet the criterion CC50 < 50 µM? `O=C(N/N=C/c1ccc[nH]1)c1[nH]c2ccc(Br)cc2c1-c1ccccc1` yes (1)

Does this compound meet the criterion CC50 < 50 µM? `CCOC(=O)c1ccc(/C=N/NC(=O)c2[nH]c3ccc(Br)cc3c2-c2ccccc2)[nH]1` no (0)

Does this compound meet the criterion CC50 < 50 µM? `O=C(N/N=C/c1[nH]ccc1Cl)c1[nH]c2ccc(Br)cc2c1-c1ccccc1` no (0)

Does this compound meet the criterion CC50 < 50 µM? `CCc1cc[nH]c1/C=N/NC(=O)c1[nH]c2ccc(Br)cc2c1-c1ccccc1` yes (1)

Does this compound meet the criterion CC50 < 50 µM? `O=C(N/N=C/c1cc(Br)c(Br)[nH]1)c1[nH]c2ccc(Br)cc2c1-c1ccccc1` no (0)
